# Test Protocol: small-molecule binders of probe aNOTCH3, primary screen, biochemical, small-molecule microarray, 635/667 nm fluorescence (AID 1120);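 also: probe is a biotin-tagged antibody raised against NOTCH3 rather than NOTCH3 protein; score merges spot fluorescence near 667 nm with spot signal to noise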
# Test Conditions: higher = more signal
composite z-score of 0.09 or higher: Satisfied. Under 0.09: Not satisfied.

[Q] Given O=C1C2C=CC(C(O)c3ccc(B(O)O)cc3)N(Nc3ccccc3)C2C(=O)N1c1ccccc1 (stereo unspecified) , state whether its composite z-score is at least 0.09.
[A] Satisfied

[Q] Then what about the molecule CN(C)CCCCCCNC(=O)[C@H]1C[C@H]2C(=O)N[C@@H](CCCCN)C(=O)N2[C@H]1c1ccc(O)cc1 ?
[A] Satisfied

[Q] Then what about the molecule CCCCCCc1nc(CCCc2cc3c(c(CCCCCC)n2)[Si](C(C)C)(C(C)C)OC3)cc2c1[Si](C(C)C)(C(C)C)OC2 ?
[A] Not satisfied

[Q] Then what about the molecule O=C1N(CCS(=O)(=O)c2ccccc2)c2ccccc2C[C@@]12COC(c1ccc(OCCCO)cc1)=N2 ?
[A] Satisfied

[Q] Then what about the molecule O=C1C=CC(=O)[C@@H]2CC(COc3ccccc3)=C3[C@@H](CCc4ccccc4)OB(O)C[C@@H]3[C@H]12 ?
[A] Not satisfied

[Q] Then what about the molecule CCOC(=O)[C@H]1C/C=C/C[C@H](C(=O)OCC)C(=O)O[C@H]2[C@@H](OC)O[C@H](CO)[C@@H](OC(=O)Nc3ccc4c(c3)OCO4)[C@@H]2OC1=O ?
[A] Satisfied

[Q] Then what about the molecule [N-]=[N+]=Nc1ccccc1[C@H]1OC(c2ccc(OCCCO)cc2)=N[C@@]1(CCS(=O)(=O)c1ccccc1)C(=O)O ?
[A] Not satisfied

[Q] Then what about the molecule COC(=O)C(CC#Cc1ccc2c(c1)[C@]1(C(=O)N2)[C@H](c2ccc(OCCO)cc2)N2[C@H](c3ccccc3)[C@H](c3ccccc3)OC(=O)[C@H]2[C@@H]1C(=O)NC[C@H](O)c1ccccc1)C(=O)OC ?
[A] Not satisfied

[Q] Then what about the molecule CC=CC(O)C1C=CC2C(=O)N(c3ccccc3)C(=O)C2N1Nc1ccc(C(C)C)cc1 (stereo unspecified) ?
[A] Satisfied

[Q] Then what about the molecule CCOC(=O)C1=CCC(c2ccc(C#N)cc2)N(S(=O)(=O)c2ccc(C)cc2)C1 (stereo unspecified) ?
[A] Satisfied

[Q] Then what about the molecule Cc1ccc(S[C@]2(C(=O)NCC(C)C)CC(=O)N(Cc3ccccc3)[C@@H]2c2ccc(CO)cc2I)cc1 ?
[A] Not satisfied

[Q] Then what about the molecule [N-]=[N+]=NCc1ccccc1[C@@H]1OC(c2ccc(OCCCO)cc2)=N[C@]1(Cc1ccccc1)C(=O)N1CCCCC1 ?
[A] Satisfied

[Q] Then what about the molecule Cc1ccc(S[C@]2(C(=O)NC3CC3)CC(=O)N(C3CCCCC3)[C@@H]2c2ccc(CO)cc2I)cc1 ?
[A] Not satisfied

[Q] Then what about the molecule C=CCNC(=O)[C@@H]1[C@H]2C(=O)O[C@H](c3ccccc3)[C@H](c3ccccc3)N2[C@H](c2ccc(O)cc2)[C@@]12C(=O)N(C(=O)OCCOC)c1ccccc12 ?
[A] Not satisfied

[Q] Then what about the molecule O=C(CS)NCCCCCCNC(=O)[C@H]1C[C@H]2C(=O)N3CCC[C@H]3C(=O)N2[C@H]1c1cccc(OCCO)c1 ?
[A] Not satisfied
